system: LS-180 cells; experiment: Cellular proliferation and viability, CRC cell line panel; type: cell-based, human; conditions: KRAS G12D, BRAF WT, APC WT, CTNNB1 S45A, 3 days post-treatment

smi | IC50 / µM
COc1cc(O)c2c(c1)/C=C/C[C@H](O)[C@H](O)C(=O)/C=C\C[C@H](C)OC2=O | 6.75

###

test system: Caco-2 cells; assay: Cellular proliferation and viability, CRC cell line panel; assay type: cell-based, human; details: KRAS WT, BRAF V600E, CTNNB1 WT, 3 days post-treatment
reported_endpoint: IC50 (nM)

smi | readout_units | recorded_measurement
COc1cc(O)c2c(c1)/C=C/C[C@H](O)[C@H](O)C(=O)/C=C\C[C@H](C)OC2=O | nM | 1440

###

system: SW620 cells; assay: Cellular proliferation and viability, CRC cell line panel; type: cell-based, human; conditions: KRAS G12V (KRAS-dependent), BRAF WT, APC del, CTNNB1 WT, 3 days post-treatment
pIC50: −log10 of the molar value.
reported_endpoint: pIC50

molecule | recorded_measurement
COc1cc(O)c2c(c1)/C=C/C[C@H](O)[C@H](O)C(=O)/C=C\C[C@H](C)OC2=O [5Z-7-oxozeaenol] | 7.03

###

test system: C2BBe1 cells; experiment: Cellular proliferation and viability, CRC cell line panel; assay type: cell-based, human; details: KRAS WT, BRAF WT, APC del, CTNNB1 WT, 3 days post-treatment
pIC50: −log10 of the molar value.

compound | pIC50
COc1cc(O)c2c(c1)/C=C/C[C@H](O)[C@H](O)C(=O)/C=C\C[C@H](C)OC2=O [5Z-7-oxozeaenol] | 5.03

###

Tested on: MDCK
Assay: Sensitivity of non-transformed epithelial cell line
Type: cell-based
Description: (A) 5Z-7-oxozeaenol IC50 values for colorectal cancer cell lines of various genotypes as well as 2 “normal” epithelial cell lines, MCF10A and MDCK (light gray bars). Data are represented as the mean of 3 independent experiments+/−SEM. […]
pIC50: −log10 of the molar value.
reported_endpoint: pIC50

compound | reported_endpoint | recorded_measurement
COc1cc(O)c2c(c1)/C=C/C[C@H](O)[C@H](O)C(=O)/C=C\C[C@H](C)OC2=O [5Z-7-oxozeaenol] | pIC50 | 4.66

###

tested on: HCT-116 cells; assay: Cellular proliferation and viability, CRC cell line panel; type: cell-based, human; conditions: KRAS G13D, BRAF WT, APC WT, CTNNB1 S45del, 3 days post-treatment

smi | measurement_target | IC50 [nM]
COc1cc(O)c2c(c1)/C=C/C[C@H](O)[C@H](O)C(=O)/C=C\C[C@H](C)OC2=O | HCT-116 cells | 2380

###

system: MDST8 cells; test: Cellular proliferation and viability, CRC cell line panel; assay type: cell-based, human; conditions: KRAS WT, BRAF V600K, APC nd, CTNNB1 WT, 3 days post-treatment
pIC50: −log10 of the molar value.

compound | pIC50
COc1cc(O)c2c(c1)/C=C/C[C@H](O)[C@H](O)C(=O)/C=C\C[C@H](C)OC2=O [5Z-7-oxozeaenol] | 6.65

###

test system: SW837 cells; assay: Cellular proliferation and viability, CRC cell line panel; assay type: cell-based, human; settings: KRAS G12C, BRAF WT, APC del, CTNNB1 WT, 3 days post-treatment

smi | measurement_target | readout_units | IC50
COc1cc(O)c2c(c1)/C=C/C[C@H](O)[C@H](O)C(=O)/C=C\C[C@H](C)OC2=O | SW837 cells | µM | 5.95
